- ASSAY_TEXT: Toxicity liver stage against HepG2, at 10uM
- Format: cell-based
- Parameters: test concentration 10 uM, cell line HepG2-A16-CD81EGFP
- SETTINGS: human, HepG2-A16-CD81EGFP cells; read-out: INHIBITION
MEASURE_NAME: cytotoxicity at 10 µM (%)
Report as a plain number; the unit % is understood.

- COMPOUND: "Cc1cccc(N2CC3(COCCN(c4ccncn4)C3)OCC2=O)c1 (centres undefined)"
  MEASURE_NAME: "cytotoxicity at 10 µM"
  MEASURED_VALUE: -105
- COMPOUND: "CN(Cc1n[nH]c2c1CCC2)C(=O)CCc1cc2n(n1)CCCNC2"
  MEASURE_NAME: "cytotoxicity at 10 µM"
  MEASURED_VALUE: -0.861
- COMPOUND: "O=C(O)[C@@H]1CN(CCOCCO)C[C@H]1c1ccccc1"
  MEASURE_NAME: "cytotoxicity at 10 µM"
  MEASURED_VALUE: -2.33
- COMPOUND: "O=C1CC[C@H]2[C@H](CCN2c2ncc(F)cn2)N1c1cccnc1"
  MEASURE_NAME: "cytotoxicity at 10 µM"
  MEASURED_VALUE: 0.864
- COMPOUND: "Cc1cc(C(F)(F)F)nc(CNc2nc(C)nc3c2cnn3C)n1"
  MEASURE_NAME: "cytotoxicity at 10 µM"
  MEASURED_VALUE: -2.24

Challenge: Input CCOc1cccc2c1OCC(C(=O)NS(=O)(=O)Cc1ccccc1)=C2 , output reported cytotoxicity at 10 µM.
Response given: -7.22

Challenge: Annotate the compound Cc1ccc(C)c(Oc2ccc(CNC(=O)C3CCS(=O)(=O)C3)cn2)c1 (centres undefined) with its measured cytotoxicity at 10 µM.
Response given: -3.98

Challenge: Please look at this compound and report its cytotoxicity at 10 µM: COc1ncccc1NC(=O)N(Cc1ccco1)C1CC1
Response given: 5.25

Challenge: Identify measured cytotoxicity at 10 µM associated with c1cnnc(N2CCCC2CNCCc2cccs2)c1 (centres undefined)
Response given: -0.555

====

// reported cytotoxicity at 10 µM per item
- ASSAY_TEXT: Toxicity liver stage against HepG2, at 10uM
- Assay type: cell-based
- Set-up: test concentration 10 uM, cell line HepG2-A16-CD81EGFP
- SETTINGS: human, HepG2-A16-CD81EGFP cells; read-out: INHIBITION
Express the result in % but write the number alone.

- COMPOUND: "O=C(CNC(=O)c1ccoc1)NCCOc1ccc2c(c1)CCC2"
  MEASURE_NAME: "cytotoxicity at 10 µM"
  MEASURED_VALUE: -7.98

Challenge: Provide only the value of recorded cytotoxicity at 10 µM for CC(=O)c1c(C)nn(CC(=O)Nc2ccc(F)cc2)c1C
Response given: -72

Challenge: Indicate its recorded cytotoxicity at 10 µM; the compound in question is CCCc1ccc(N2CCN(Cc3nc4ccccc4n3C)CC2)cc1
Response given: 7.06

Challenge: Give reported cytotoxicity at 10 µM value for CC(Nc1cccc(CN2CCOC2=O)c1)C(=O)Nc1ccccc1F (stereo not drawn)
Response given: -5.25

Challenge: Tell me measured cytotoxicity at 10 µM for CC1CCc2n[nH]c(C(=O)NCCCc3ccccn3)c2C1 (stereo not drawn) please.
Response given: -24.3

Challenge: Using known records, supply cytotoxicity at 10 µM for CC(NCc1ccsc1)c1ccc2c(c1)NC(=O)CO2 (stereo not drawn)
Response given: -7.6

Challenge: Kindly indicate its recorded cytotoxicity at 10 µM. Item: Cc1ncc(CN2CCCC(c3nc4ccccc4n3C(C)C)C2)s1 (stereo not drawn)
Response given: -24.9

Challenge: Report measured cytotoxicity at 10 µM; entry is Cc1cccc(OCC(O)CNCc2c(C)nn(C)c2N(C)C)c1 (stereo not drawn)
Response given: -2.45

Challenge: Give cytotoxicity at 10 µM for the following compound: CS(=O)(=O)NC1CCCN(C(=O)NCc2ccccc2Cl)C1 (stereo not drawn)
Response given: -12.8

Challenge: Complete the entry with cytotoxicity at 10 µM for COc1ccc(C[C@H]2CNCC[C@H]2OC)cc1
Response given: 1.76

Challenge: Specify reported cytotoxicity at 10 µM for the compound shown: CN1CCN(c2ncc(-c3cnccn3)c([C@H]3CCCO3)n2)CC1
Response given: -20

Challenge: Quote cytotoxicity at 10 µM reported for Cc1cnc(C(=O)N2CCN(c3ncc4c(n3)CCOC4)CC2)cn1 please.
Response given: 4.91

Challenge: Read the entry CN1CCN(c2ncccn2)CC(C(=O)N(C)C)C1 (stereo not drawn) and write its reported cytotoxicity at 10 µM.
Response given: 0.651

====

cytotoxicity at 10 µM by entry:
- ASSAY_TEXT: Toxicity liver stage against HepG2, at 10uM
- Type: cell-based
- Design: test concentration 10 uM, cell line HepG2-A16-CD81EGFP
- SETTINGS: human, HepG2-A16-CD81EGFP cells; read-out: INHIBITION
I only need the number, in %, no unit after it.

# example entries with known answers
- MOLECULE: "CCN(CCNS(=O)(=O)N1CCOCC1)C(=O)OC(C)(C)C"
  MEASURED_VALUE: 19.9
- MOLECULE: "CCN(CCN1CCOCC1)C(=O)c1cccnc1"
  MEASURED_VALUE: 7.42
- MOLECULE: "O=C(Cc1ccon1)Nc1cncc(Br)c1O"
  MEASURED_VALUE: 7.06

Challenge: Retrieve cytotoxicity at 10 µM measured for CCOc1cc2c(cc1CN1CCC3(CCCNC3=O)C1)CCC2 (configuration not stated) and print it.
Response given: 14.9

Challenge: Return reported cytotoxicity at 10 µM. Input molecule: CCC1(CC)Cc2ccccc2-c2nc(CN(C)C)nc(O)c21
Response given: -8.95

Challenge: Recall and state the measured cytotoxicity at 10 µM for Cc1noc(C)c1CN(C)C(=O)C1CCCCN1CC(C)C (configuration not stated) .
Response given: 2.64

Challenge: Quote cytotoxicity at 10 µM reported for CCN1CCN(C(=O)NC(C)c2noc(-c3ccccc3)n2)CC1 (configuration not stated) please.
Response given: -15.5

Challenge: Supply cytotoxicity at 10 µM value. Item: CCN(Cc1ccc(O)c(C(=O)O)c1)CC1CCCO1 (configuration not stated)
Response given: 3.9

Challenge: Answer with the recorded cytotoxicity at 10 µM of CSCCC(NC(=O)C1CC1)C(=O)N(C)Cc1ccsc1 (configuration not stated) only.
Response given: -3.96

Challenge: Determine its reported cytotoxicity at 10 µM: CN(C)C(=O)C1CCCN1C(=O)c1ccc(Cn2ccnc2)o1 (configuration not stated)
Response given: -0.304

Challenge: Quick one: give measured cytotoxicity at 10 µM for CC(C)CCc1n[nH]c(C(=O)O)c1Br
Response given: -3.09

Challenge: Query cytotoxicity at 10 µM for COc1cccc(S(=O)(=O)NC(=O)c2c(C)noc2C(C)C)c1
Response given: -6.83

====

- ASSAY_TEXT: Toxicity liver stage against HepG2, at 10uM
- Type: cell-based
- Parameters: test concentration 10 uM, cell line HepG2-A16-CD81EGFP
- SETTINGS: human, HepG2-A16-CD81EGFP cells; read-out: INHIBITION
Labelling field: enter true (1) if recorded cytotoxicity at 10 µM is less than -10%. Enter false (0) if it equals or exceeds that cut-off.

Answered examples (8):
- COMPOUND: "CC(C)CNC(=O)[C@H]1CCS(=O)(=O)[C@@H]2CN(Cc3cccc(Cl)c3)C[C@H]12"
  CLASS_NAME: "false (0)"
- COMPOUND: "COC(=O)c1cc(OCC2CCC2)cc(C(=O)N[C@@H]2CNCC[C@H]2O)c1"
  CLASS_NAME: "true (1)"
- COMPOUND: "Cc1ccc(N2CC[C@H]3OCC[C@@]3(C(=O)N3CCCO3)C2)nn1"
  CLASS_NAME: "false (0)"
- COMPOUND: "CO[C@H]1CO[C@@]2(CCCN(C(=O)N3CCCC3)C2)C1"
  CLASS_NAME: "true (1)"
- COMPOUND: "CCc1nnc2n1CCN(C(=O)c1cnn(C)c1C1CC1)C2"
  CLASS_NAME: "false (0)"
- COMPOUND: "CC(=O)NCCCC(=O)NC1(c2ccc(Cl)c(Cl)c2)CC1"
  CLASS_NAME: "false (0)"
- COMPOUND: "COc1cccc(NC(=O)c2nc3ccccc3n(C)c2=O)c1"
  CLASS_NAME: "false (0)"
- COMPOUND: "CC(C)c1nc(CN(C)C(=O)CCc2ccc3c(c2)OCO3)cs1"
  CLASS_NAME: "true (1)"

Challenge: # TODO verify cytotoxicity at 10 µM < -10% strictly for this compound: Cc1cnc(C(=O)N2CC[C@H]3C[C@@H](c4nc(C)cs4)O[C@@H]3C2)cn1
Response given: false (0)

Challenge: I wonder whether CC(=O)N1CCCC2(CCN(C(=O)c3ccc(Cl)c(C(F)(F)F)c3)C2)C1 (configuration not stated) has cytotoxicity at 10 µM below -10%. Can you tell?
Response given: true (1)

Challenge: Problem: For the compound Cc1ccc(C(C)N(C)CCS(=O)(=O)CCC(N)=O)cc1 (configuration not stated) , is cytotoxicity at 10 µM under -10%?
Response given: true (1)

Challenge: I wonder whether O=C(Cc1ccc(F)cc1)NCCNc1cc(N2CCCC2)ncn1 has cytotoxicity at 10 µM below -10%. Can you tell?
Response given: false (0)

Challenge: Is it true that cytotoxicity at 10 µM reported for CC(=O)NC1CCCN(C(=O)NCCOc2ccc3c(c2)OCO3)C1 (configuration not stated) is less than -10%?
Response given: true (1)

Challenge: Take the compound COc1cc(CN(C)C(=O)NCc2nccs2)ccc1SC and say whether its cytotoxicity at 10 µM is less than -10%.
Response given: false (0)

Challenge: Say whether its cytotoxicity at 10 µM is strictly beneath -10%. Entry: Cn1ncc2c1CCCC2NCc1cccc(OC2CCCC2)c1 (configuration not stated)
Response given: true (1)

Challenge: hey, is cytotoxicity at 10 µM for Cn1cc(CN2C[C@@H]3CCC[C@@H](OCc4cccnc4)[C@@H]3C2)cn1 lower than -10% or not?
Response given: true (1)

Challenge: I wonder whether Cn1nc(C(=O)NCc2ccc(F)cc2)c2c1CCS(=O)(=O)C2 has cytotoxicity at 10 µM below -10%. Can you tell?
Response given: false (0)

Challenge: I wonder whether Nc1cc(N2CCOCC(Cc3ccc4[nH]ccc4c3)C2)ncn1 (configuration not stated) has cytotoxicity at 10 µM below -10%. Can you tell?
Response given: false (0)

Challenge: Does the reported cytotoxicity at 10 µM of Cc1nn(C)c(N(C)C)c1CNCc1ccnc(N2CCCCC2)c1 stay below -10%?
Response given: false (0)

Challenge: State whether -10% exceeds cytotoxicity at 10 µM recorded for CCOc1cc(CNCc2nc(C)cc(=O)[nH]2)c(Cl)cc1OC(C)C .
Response given: false (0)

Challenge: Lab log: compare recorded cytotoxicity at 10 µM with -10%; is it strictly lower for COc1cc(F)ccc1N(C)Cc1ccccn1 ?
Response given: false (0)
